Tested on: Aspergillus niger
Assay: Antimicrobial activity against Aspergillus niger MTCC 282 assessed as diameter of growth inhibition zone after 48 hr; also: test concentration or dose not given here
Assay type: functional

{"smiles.string": "O=C(/C=C/c1ccc(F)cc1)c1ccc(Nc2cc(=O)oc3ccccc23)cc1", "diameter of the inhibition zone (DIZ) [mm]": 17}
{"smiles.string": "N#Cc1c(-c2ccccc2O)cc(-c2ccc(Nc3cc(=O)oc4ccccc34)cc2)nc1N", "diameter of the inhibition zone (DIZ) [mm]": 25}
{"smiles.string": "O=C(/C=C/c1ccc(Cl)cc1)c1ccc(Nc2cc(=O)oc3ccccc23)cc1", "diameter of the inhibition zone (DIZ) [mm]": 12}
{"smiles.string": "Nc1nc(-c2ccc(Cl)cc2)cc(-c2ccc(Nc3cc(=O)oc4ccccc34)cc2)n1", "diameter of the inhibition zone (DIZ) [mm]": 17}
{"smiles.string": "Nc1nc(-c2ccc(F)cc2)cc(-c2ccc(Nc3cc(=O)oc4ccccc34)cc2)n1", "diameter of the inhibition zone (DIZ) [mm]": 22}

* * *

// reported diameter of the inhibition zone (DIZ) per item
Test system: Aspergillus fumigatus
Experiment: Antimicrobial activity against Aspergillus fumigatus MTCC 343 assessed as diameter of growth inhibition zone after 48 hr; also: test concentration or dose not given here
Type: functional
measure.name: diameter of the inhibition zone (DIZ) (mm)

{"compound": "COc1ccc(-c2cc(-c3ccc(Nc4cc(=O)oc5ccccc45)cc3)nc(N)c2C#N)cc1OC", "unit.of.measurement": "mm", "relation.qualifier": "=", "reported.result": 28}
{"compound": "O=C(/C=C/c1ccccc1Br)c1ccc(Nc2cc(=O)oc3ccccc23)cc1", "unit.of.measurement": "mm", "relation.qualifier": "=", "reported.result": 15}
{"compound": "N#Cc1c(-c2ccc(Cl)cc2Cl)cc(-c2ccc(Nc3cc(=O)oc4ccccc34)cc2)nc1N", "unit.of.measurement": "mm", "relation.qualifier": "=", "reported.result": 23}
{"compound": "Nc1nc(-c2ccc(Nc3cc(=O)oc4ccccc34)cc2)cc(-c2ccc(O)cc2O)n1", "unit.of.measurement": "mm", "relation.qualifier": "=", "reported.result": 25}
{"compound": "N#Cc1c(-c2ccc([N+](=O)[O-])cc2)cc(-c2ccc(Nc3cc(=O)oc4ccccc34)cc2)nc1N", "unit.of.measurement": "mm", "relation.qualifier": "=", "reported.result": 20}
{"compound": "N#Cc1c(-c2ccccc2Br)cc(-c2ccc(Nc3cc(=O)oc4ccccc34)cc2)nc1N", "unit.of.measurement": "mm", "relation.qualifier": "=", "reported.result": 22}
{"compound": "Nc1nc(-c2ccc(F)cc2)cc(-c2ccc(Nc3cc(=O)oc4ccccc34)cc2)n1", "unit.of.measurement": "mm", "relation.qualifier": "=", "reported.result": 27}
{"compound": "O=C(/C=C/c1ccc(Cl)cc1Cl)c1ccc(Nc2cc(=O)oc3ccccc23)cc1", "unit.of.measurement": "mm", "relation.qualifier": "=", "reported.result": 17}
{"compound": "Cc1ccc(-c2cc(-c3ccc(Nc4cc(=O)oc5ccccc45)cc3)nc(N)c2C#N)cc1", "unit.of.measurement": "mm", "relation.qualifier": "=", "reported.result": 21}
{"compound": "CC(=O)N1N=C(c2ccc(Nc3cc(=O)oc4ccccc34)cc2)CC1c1ccc(F)cc1 (centres undefined)", "unit.of.measurement": "mm", "relation.qualifier": "=", "reported.result": 22}
{"compound": "Nc1nc(-c2ccc(Nc3cc(=O)oc4ccccc34)cc2)cc(-c2ccc(Cl)cc2Cl)n1", "unit.of.measurement": "mm", "relation.qualifier": "=", "reported.result": 22}
{"compound": "O=C(/C=C/c1ccccc1O)c1ccc(Nc2cc(=O)oc3ccccc23)cc1", "unit.of.measurement": "mm", "relation.qualifier": "=", "reported.result": 17}
{"compound": "O=C(/C=C/c1ccc([N+](=O)[O-])cc1)c1ccc(Nc2cc(=O)oc3ccccc23)cc1", "unit.of.measurement": "mm", "relation.qualifier": "<", "reported.result": 10}
{"compound": "O=C(/C=C/c1ccc(Cl)cc1)c1ccc(Nc2cc(=O)oc3ccccc23)cc1", "unit.of.measurement": "mm", "relation.qualifier": "=", "reported.result": 14}
{"compound": "Nc1nc(-c2ccc(Nc3cc(=O)oc4ccccc34)cc2)cc(-c2ccc([N+](=O)[O-])cc2)n1", "unit.of.measurement": "mm", "relation.qualifier": "=", "reported.result": 16}
{"compound": "Nc1nc(-c2ccc(Cl)cc2)cc(-c2ccc(Nc3cc(=O)oc4ccccc34)cc2)n1", "unit.of.measurement": "mm", "relation.qualifier": "=", "reported.result": 19}
{"compound": "O=C(/C=C/c1ccc(O)cc1O)c1ccc(Nc2cc(=O)oc3ccccc23)cc1", "unit.of.measurement": "mm", "relation.qualifier": "=", "reported.result": 22}
{"compound": "COc1ccc(C2CC(c3ccc(Nc4cc(=O)oc5ccccc45)cc3)=NN2C(C)=O)cc1 (centres undefined)", "unit.of.measurement": "mm", "relation.qualifier": "=", "reported.result": 18}
{"compound": "N#Cc1c(-c2ccccc2O)cc(-c2ccc(Nc3cc(=O)oc4ccccc34)cc2)nc1N", "unit.of.measurement": "mm", "relation.qualifier": "=", "reported.result": 25}

* * *

A collection of compounds and their measured MIC
System: Pseudomonas aeruginosa
Experiment: Antimicrobial activity against Pseudomonas aeruginosa MTCC 741 assessed as growth inhibition after 24 hr by agar streak dilution method
Type: functional
Details: MTCC 741, 24 h

{"compound": "Nc1nc(-c2ccc(Nc3cc(=O)oc4ccccc34)cc2)cc(-c2ccccc2O)n1", "MIC (µg/mL)": 50}
{"compound": "O=C(O)c1cn(C2CC2)c2cc(N3CCNCC3)c(F)cc2c1=O [CIPROFLOXACIN]", "MIC (µg/mL)": 1}
{"compound": "CC(=O)N1N=C(c2ccc(Nc3cc(=O)oc4ccccc34)cc2)CC1c1ccc(C)cc1 (centres undefined)", "MIC (µg/mL)": 100}
{"compound": "CC(=O)N1N=C(c2ccc(Nc3cc(=O)oc4ccccc34)cc2)CC1c1ccc([N+](=O)[O-])cc1 (centres undefined)", "MIC (µg/mL)": 100}
{"compound": "Cc1ccc(-c2cc(-c3ccc(Nc4cc(=O)oc5ccccc45)cc3)nc(N)n2)cc1", "MIC (µg/mL)": 50}
{"compound": "N#Cc1c(-c2ccc(Cl)cc2)cc(-c2ccc(Nc3cc(=O)oc4ccccc34)cc2)nc1N", "MIC (µg/mL)": 50}
{"compound": "CC(=O)N1N=C(c2ccc(Nc3cc(=O)oc4ccccc34)cc2)CC1c1ccc(O)cc1O (centres undefined)", "MIC (µg/mL)": 25}
{"compound": "CC(=O)N1N=C(c2ccc(Nc3cc(=O)oc4ccccc34)cc2)CC1c1ccccc1Br (centres undefined)", "MIC (µg/mL)": 100}
{"compound": "N#Cc1c(-c2ccccc2Br)cc(-c2ccc(Nc3cc(=O)oc4ccccc34)cc2)nc1N", "MIC (µg/mL)": 50}
{"compound": "COc1ccc(-c2cc(-c3ccc(Nc4cc(=O)oc5ccccc45)cc3)nc(N)c2C#N)cc1", "MIC (µg/mL)": 6.25}
{"compound": "O=C(/C=C/c1ccc(F)cc1)c1ccc(Nc2cc(=O)oc3ccccc23)cc1", "MIC (µg/mL)": 100}
{"compound": "COc1ccc(-c2cc(-c3ccc(Nc4cc(=O)oc5ccccc45)cc3)nc(N)c2C#N)cc1OC", "MIC (µg/mL)": 6.25}
{"compound": "N#Cc1c(-c2ccc([N+](=O)[O-])cc2)cc(-c2ccc(Nc3cc(=O)oc4ccccc34)cc2)nc1N", "MIC (µg/mL)": 50}
{"compound": "N#Cc1c(-c2ccc(F)cc2)cc(-c2ccc(Nc3cc(=O)oc4ccccc34)cc2)nc1N", "MIC (µg/mL)": 3.12}
{"compound": "COc1ccc(/C=C/C(=O)c2ccc(Nc3cc(=O)oc4ccccc34)cc2)cc1OC", "MIC (µg/mL)": 50}
{"compound": "O=C(/C=C/c1ccc(O)cc1O)c1ccc(Nc2cc(=O)oc3ccccc23)cc1", "MIC (µg/mL)": 25}
{"compound": "CC(=O)N1N=C(c2ccc(Nc3cc(=O)oc4ccccc34)cc2)CC1c1ccccc1O (centres undefined)", "MIC (µg/mL)": 100}
{"compound": "O=C(/C=C/c1ccccc1O)c1ccc(Nc2cc(=O)oc3ccccc23)cc1", "MIC (µg/mL)": 100}
{"compound": "Cc1ccc(/C=C/C(=O)c2ccc(Nc3cc(=O)oc4ccccc34)cc2)cc1", "MIC (µg/mL)": 100}

* * *

System: Proteus vulgaris
Assay: Antimicrobial activity against Proteus vulgaris MTCC 1771 assessed as diameter of growth inhibition zone after 24 hr
Format: functional

{"molecule": "Nc1nc(-c2ccc(Nc3cc(=O)oc4ccccc34)cc2)cc(-c2ccc(O)cc2O)n1", "measurement.target": "Proteus vulgaris", "diameter of the inhibition zone (DIZ) (mm)": 28}
{"molecule": "N#Cc1c(-c2ccc(Cl)cc2)cc(-c2ccc(Nc3cc(=O)oc4ccccc34)cc2)nc1N", "measurement.target": "Proteus vulgaris", "diameter of the inhibition zone (DIZ) (mm)": 26}
{"molecule": "Nc1nc(-c2ccc(Nc3cc(=O)oc4ccccc34)cc2)cc(-c2ccc(Cl)cc2Cl)n1", "measurement.target": "Proteus vulgaris", "diameter of the inhibition zone (DIZ) (mm)": 25}
{"molecule": "N#Cc1c(-c2ccc(O)cc2O)cc(-c2ccc(Nc3cc(=O)oc4ccccc34)cc2)nc1N", "measurement.target": "Proteus vulgaris", "diameter of the inhibition zone (DIZ) (mm)": 23}
{"molecule": "CC(=O)N1N=C(c2ccc(Nc3cc(=O)oc4ccccc34)cc2)CC1c1ccc(Cl)cc1Cl (stereo unspecified)", "measurement.target": "Proteus vulgaris", "diameter of the inhibition zone (DIZ) (mm)": 22}
{"molecule": "COc1ccc(-c2cc(-c3ccc(Nc4cc(=O)oc5ccccc45)cc3)nc(N)c2C#N)cc1OC", "measurement.target": "Proteus vulgaris", "diameter of the inhibition zone (DIZ) (mm)": 25}
